Where these numbers come from: patent US10532986B2

Target: Recombinant human PDE4B (Homo sapiens)
Construct: amino acid 305-end; GST (N)
Assay: Inhibitory activity of the compounds against PDE 4B (fluorescence polarization, Transcreener AMP2/GMP2)
Details: recombinant human PDE4B (aa 305-end, GST tag); 1 μM cAMP; 1 hour at room temperature
Would you mind telling me the reported pIC50 of each entry?
Give bare numbers, as −log10 of the molar value.

| compound | readout number |
| --- | --- |
| CCOc1cc([C@@H](CS(C)(=O)=O)n2c(=O)[nH]c3cc(F)cc(F)c32)ccc1OC [WX005] | 7.03 |
| CCOc1cc([C@@H](CS(C)(=O)=O)n2c(=O)[nH]c3cc(-c4ncccc4F)ccc32)ccc1OC [WX025] | 8.85 |

Hello, I would appreciate it if you could give pIC50 for each entry below.
1. CCOc1cc([C@@H](CS(C)(=O)=O)n2c(=O)n(C3CC3)c3cc(-c4ccccc4F)ccc32)ccc1OC [WX023]
2. CCOc1cc([C@@H](CS(C)(=O)=O)n2c(=O)[nH]c3cc(-c4ccc(F)cc4)ccc32)ccc1OC [WX013]
3. CCOc1cc([C@@H](CS(C)(=O)=O)n2c(=O)n(C(C)C)c3cc(Cl)ccc32)ccc1OC [WX044]
4. CCOc1cc([C@@H](CS(C)(=O)=O)n2c(=O)[nH]c3cc(F)ccc32)ccc1OC [WX004]
5. CCOC(=O)c1ccc2c(c1)[nH]c(=O)n2[C@H](CS(C)(=O)=O)c1ccc(OC)c(OCC)c1 [WX031]
6. CCOc1cc([C@@H](CS(C)(=O)=O)n2c(=O)[nH]c3c(C(C)C)cccc32)ccc1OC [WX079]
7. CCOc1cc([C@@H](CS(C)(=O)=O)n2c(=O)n(CC#N)c3cc(F)cc(F)c32)ccc1OC [WX058]

Reply:
1: 8.72; 2: 8.21; 3: 8.29; 4: 7.94; 5: 8.48; 6: 8.60; 7: 8.07

* * *

Biological target: Recombinant human PDE4B (Homo sapiens, UniProt Q07343)
Construct: amino acid 305-end; GST (N)
Sequence (Q07343 305-736 limits assumed): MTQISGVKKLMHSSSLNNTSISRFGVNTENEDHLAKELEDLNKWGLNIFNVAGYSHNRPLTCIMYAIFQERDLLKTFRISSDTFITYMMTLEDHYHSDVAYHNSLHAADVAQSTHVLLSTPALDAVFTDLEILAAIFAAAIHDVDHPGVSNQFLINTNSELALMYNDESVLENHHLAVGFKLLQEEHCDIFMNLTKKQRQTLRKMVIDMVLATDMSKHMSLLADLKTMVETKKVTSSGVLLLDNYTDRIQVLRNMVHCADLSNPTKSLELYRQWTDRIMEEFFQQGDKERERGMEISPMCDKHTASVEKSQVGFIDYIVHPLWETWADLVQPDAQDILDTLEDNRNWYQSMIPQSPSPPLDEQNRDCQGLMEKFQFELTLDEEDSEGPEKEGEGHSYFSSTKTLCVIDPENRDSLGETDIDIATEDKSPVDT
Assay: Inhibitory activity of the compounds against PDE 4B (fluorescence polarization, Transcreener AMP2/GMP2)
Details: recombinant human PDE4B (aa 305-end, GST tag); 1 μM cAMP; 1 hour at room temperature
parameter: IC50 (nM)
Answers are plain numbers, in nM.

Solved entries:
| molecule | target or test system | IC50, nM |
| --- | --- | --- |
| CCOc1cc([C@@H](CS(C)(=O)=O)n2c(=O)n(CC3CC3)c3cc(Cl)ccc32)ccc1OC [WX040] | Recombinant human PDE4B (Homo sapiens, UniProt Q07343) | 7.54 |
| CCOc1cc([C@@H](CS(C)(=O)=O)n2c(=O)n(CC(F)F)c3c(Cl)cccc32)ccc1OC [WX061] | Recombinant human PDE4B (Homo sapiens, UniProt Q07343) | 39 |

Now examine the next entry.
Query: Entry CCOc1cc([C@@H](CS(C)(=O)=O)n2c(=O)[nH]c3c(C4CCOCC4)cccc32)ccc1OC [WX081] , system Recombinant human PDE4B (Homo sapiens, UniProt Q07343): what IC50 was measured?
Reply: 1.38

* * *

Target: Recombinant human PDE4B (Homo sapiens)
Construct: amino acid 305-end; GST (N)
Test: Inhibitory activity of the compounds against PDE 4B (fluorescence polarization, Transcreener AMP2/GMP2)
Settings: recombinant human PDE4B (aa 305-end, GST tag); 1 μM cAMP; 1 hour at room temperature
Would you mind telling me the reported pIC50 of each entry?
Answers are plain numbers, as −log10 of the molar value.

| compound | target or test system | readout number |
| --- | --- | --- |
| CCOc1cc([C@@H](CS(C)(=O)=O)n2c(=O)[nH]c3cc(C(=O)CC)ccc32)ccc1OC [WX035] | Recombinant human PDE4B (Homo sapiens) | 8.08 |
| CCOc1cc([C@@H](CS(C)(=O)=O)n2c(=O)[nH]c3c(-c4cnn(C)c4)cccc32)ccc1OC [WX078] | Recombinant human PDE4B (Homo sapiens) | 9.09 |
| CCOc1cc([C@@H](CS(C)(=O)=O)n2c(=O)[nH]c3cc(C(=O)OC(C)C)ccc32)ccc1OC [WX032] | Recombinant human PDE4B (Homo sapiens) | 8.69 |

Hello, I would appreciate it if you could give pIC50 for each entry below.
1. CCOc1cc([C@@H](CS(C)(=O)=O)n2c(=O)[nH]c3cc(Cl)ccc32)ccc1OC [WX003]
2. CCOc1cc([C@@H](CS(C)(=O)=O)n2c(=O)n(CC3CCC3)c3cc(Cl)ccc32)ccc1OC [WX041]
3. CCOc1cc([C@@H](CS(C)(=O)=O)n2c(=O)n(Cc3cccc(F)c3)c3cc(Br)ccc32)ccc1OC [WX065]
4. CCOc1cc([C@@H](CS(C)(=O)=O)n2c(=O)n(CC(F)(F)F)c3cc(Cl)ccc32)ccc1OC [WX037]
5. CCOc1cc([C@@H](CS(C)(=O)=O)n2c(=O)n(C)c3cc(F)ccc32)ccc1OC [WX048]

Reply:
[8.65, 7.92, 8.84, 7.97, 7.24]
